# Tested on: mice bearing PSMA-expressing LNCAP cancer xenografts
# PROTOCOL_DESCRIPTION: Biodistribution of 68Ga-labeled compounds
# Type: in vivo
# SETTINGS: 3 h post-injection
MEASURED_QUANTITY: Tumor uptake (% ID/g)

COMPOUND: O=C([O-])CN1CCN(CC(=O)[O-])CCN(CC(=O)NCCCC[C@H](NC(=O)CNC(=O)CCCc2ccc(F)cc2)C(=O)NC[C@H]2CC[C@H](C(=O)N[C@@H](Cc3ccc4ccccc4c3)C(=O)NCCCC[C@H](NC(=O)N[C@@H](CCC(=O)O)C(=O)O)C(=O)O)CC2)CCN(CC(=O)[O-])CC1.[68Ga+3] [^68Ga-HTK03085]
MEASURED_QUANTITY: Tumor uptake
NUMBER: 28.9

COMPOUND: O=C([O-])CN1CCN(CC(=O)[O-])CCN(CC(=O)NCCCC[C@H](NC(=O)CNC(=O)CCCc2ccc([N+](=O)[O-])cc2)C(=O)NC[C@H]2CC[C@H](C(=O)N[C@@H](Cc3ccc4ccccc4c3)C(=O)NCCCC[C@H](NC(=O)N[C@@H](CCC(=O)O)C(=O)O)C(=O)O)CC2)CCN(CC(=O)[O-])CC1.[68Ga+3] [^68Ga-HTK03089]
MEASURED_QUANTITY: Tumor uptake
NUMBER: 31.2

COMPOUND: O=C([O-])CN1CCN(CC(=O)[O-])CCN(CC(=O)NCCCC[C@H](NC(=O)CNC(=O)CCCc2ccc(Cl)cc2)C(=O)NC[C@H]2CC[C@H](C(=O)N[C@@H](Cc3ccc4ccccc4c3)C(=O)NCCCC[C@H](NC(=O)N[C@@H](CCC(=O)O)C(=O)O)C(=O)O)CC2)CCN(CC(=O)[O-])CC1.[68Ga+3] [^68Ga-HTK03055]
MEASURED_QUANTITY: Tumor uptake
NUMBER: 30.1

COMPOUND: O=C([O-])CN1CCN(CC(=O)[O-])CCN(CC(=O)NCCCC[C@H](NC(=O)CNC(=O)CCc2ccccc2)C(=O)NC[C@H]2CC[C@H](C(=O)N[C@@H](Cc3ccc4ccccc4c3)C(=O)NCCCC[C@H](NC(=O)N[C@@H](CCC(=O)O)C(=O)O)C(=O)O)CC2)CCN(CC(=O)[O-])CC1.[68Ga+3] [^68Ga-HTK03082]
MEASURED_QUANTITY: Tumor uptake
NUMBER: 14.5

COMPOUND: O=C([O-])CN1CCN(CC(=O)[O-])CCN(CC(=O)NCCCC[C@H](NC(=O)CNC(=O)CCCc2ccc(Br)cc2)C(=O)NC[C@H]2CC[C@H](C(=O)N[C@@H](Cc3ccc4ccccc4c3)C(=O)NCCCC[C@H](NC(=O)N[C@@H](CCC(=O)O)C(=O)O)C(=O)O)CC2)CCN(CC(=O)[O-])CC1.[68Ga+3] [^68Ga-HTK03058]
MEASURED_QUANTITY: Tumor uptake
NUMBER: 14.2

COMPOUND: COc1ccc(CCCC(=O)NCC(=O)N[C@@H](CCCCNC(=O)CN2CCN(CC(=O)[O-])CCN(CC(=O)[O-])CCN(CC(=O)[O-])CC2)C(=O)NC[C@H]2CC[C@H](C(=O)N[C@@H](Cc3ccc4ccccc4c3)C(=O)NCCCC[C@H](NC(=O)N[C@@H](CCC(=O)O)C(=O)O)C(=O)O)CC2)cc1.[68Ga+3] [^68Ga-HTK03086]
MEASURED_QUANTITY: Tumor uptake
NUMBER: 28.2

COMPOUND: O=C([O-])CN1CCN(CC(=O)[O-])CCN(CC(=O)NCCCC[C@H](NC(=O)CNC(=O)CCCc2ccccc2)C(=O)NC[C@H]2CC[C@H](C(=O)N[C@@H](Cc3ccc4ccccc4c3)C(=O)NCCCC[C@H](NC(=O)N[C@@H](CCC(=O)O)C(=O)O)C(=O)O)CC2)CCN(CC(=O)[O-])CC1.[68Ga+3] [^68Ga-HTK03056]
MEASURED_QUANTITY: Tumor uptake
NUMBER: 32.9

COMPOUND: O=C([O-])CN1CCN(CC(=O)[O-])CCN(CC(=O)NCCCC[C@H](NC(=O)CNC(=O)CCCc2ccc(I)cc2)C(=O)NC[C@H]2CC[C@H](C(=O)N[C@@H](Cc3ccc4ccccc4c3)C(=O)NCCCC[C@H](NC(=O)N[C@@H](CCC(=O)O)C(=O)O)C(=O)O)CC2)CCN(CC(=O)[O-])CC1.[68Ga+3] [^68Ga-HTK03024]
MEASURED_QUANTITY: Tumor uptake
NUMBER: 15.0

COMPOUND: O=C([O-])CN1CCN(CC(=O)[O-])CCN(CC(=O)NCC2CCC(C(=O)NC(Cc3c4ccccc4cc4ccccc34)C(=O)NCCCCC(NC(=O)NC(CCC(=O)O)C(=O)O)C(=O)O)CC2)CCN(CC(=O)[O-])CC1.[68Ga+3] (stereo not drawn) [^68Ga-HTK03041]
MEASURED_QUANTITY: Tumor uptake
NUMBER: 28.2

----------
# System: mice bearing PSMA-expressing LNCAP cancer xenografts
# PROTOCOL_DESCRIPTION: Biodistribution of 68Ga-labeled compounds
# Format: in vivo
# SETTINGS: 3 h post-injection
The following molecules are shown together with reported Adrenal glands uptake values.

MOLECULE: Cc1ccc(CCCC(=O)NCC(=O)N[C@@H](CCCCNC(=O)CN2CCN(CC(=O)[O-])CCN(CC(=O)[O-])CCN(CC(=O)[O-])CC2)C(=O)NC[C@H]2CC[C@H](C(=O)N[C@@H](Cc3ccc4ccccc4c3)C(=O)NCCCC[C@H](NC(=O)N[C@@H](CCC(=O)O)C(=O)O)C(=O)O)CC2)cc1.[68Ga+3] [^68Ga-HTK03090]
Adrenal glands uptake [% ID/g]: 2.89
--
MOLECULE: O=C([O-])CN1CCN(CC(=O)[O-])CCN(CC(=O)NCCCC[C@H](NC(=O)CNC(=O)CCCc2ccc(Cl)cc2)C(=O)NC[C@H]2CC[C@H](C(=O)N[C@@H](Cc3ccc4ccccc4c3)C(=O)NCCCC[C@H](NC(=O)N[C@@H](CCC(=O)O)C(=O)O)C(=O)O)CC2)CCN(CC(=O)[O-])CC1.[68Ga+3] [^68Ga-HTK03055]
Adrenal glands uptake [% ID/g]: 6.45
--
MOLECULE: O=C([O-])CN1CCN(CC(=O)[O-])CCN(CC(=O)NCCCC[C@H](NC(=O)CNC(=O)CCCc2ccc(F)cc2)C(=O)NC[C@H]2CC[C@H](C(=O)N[C@@H](Cc3ccc4ccccc4c3)C(=O)NCCCC[C@H](NC(=O)N[C@@H](CCC(=O)O)C(=O)O)C(=O)O)CC2)CCN(CC(=O)[O-])CC1.[68Ga+3] [^68Ga-HTK03085]
Adrenal glands uptake [% ID/g]: 1.37
--
MOLECULE: O=C([O-])CN1CCN(CC(=O)[O-])CCN(CC(=O)NCCCC[C@H](NC(=O)CNC(=O)CCCc2ccc(I)cc2)C(=O)NC[C@H]2CC[C@H](C(=O)N[C@@H](Cc3ccc4ccccc4c3)C(=O)NCCCC[C@H](NC(=O)N[C@@H](CCC(=O)O)C(=O)O)C(=O)O)CC2)CCN(CC(=O)[O-])CC1.[68Ga+3] [^68Ga-HTK03024]
Adrenal glands uptake [% ID/g]: 6.37

----------
# System: mice bearing PSMA-expressing LNCAP cancer xenografts
# PROTOCOL_DESCRIPTION: Biodistribution of 68Ga-labeled compounds
# Type: in vivo
# SETTINGS: 3 h post-injection

COMPOUND: O=C([O-])CN1CCN(CC(=O)[O-])CCN(CC(=O)NCCCC[C@H](NC(=O)CNC(=O)CCCc2ccc([N+](=O)[O-])cc2)C(=O)NC[C@H]2CC[C@H](C(=O)N[C@@H](Cc3ccc4ccccc4c3)C(=O)NCCCC[C@H](NC(=O)N[C@@H](CCC(=O)O)C(=O)O)C(=O)O)CC2)CCN(CC(=O)[O-])CC1.[68Ga+3] [^68Ga-HTK03089]
Heart uptake [% ID/g]: 0.68

COMPOUND: Nc1ccc(CCCC(=O)NCC(=O)N[C@@H](CCCCNC(=O)CN2CCN(CC(=O)[O-])CCN(CC(=O)[O-])CCN(CC(=O)[O-])CC2)C(=O)NC[C@H]2CC[C@H](C(=O)N[C@@H](Cc3ccc4ccccc4c3)C(=O)NCCCC[C@H](NC(=O)N[C@@H](CCC(=O)O)C(=O)O)C(=O)O)CC2)cc1.[68Ga+3] [^68Ga-HTK03087]
Heart uptake [% ID/g]: 0.16

COMPOUND: O=C([O-])CN1CCN(CC(=O)[O-])CCN(CC(=O)NCCCC[C@H](NC(=O)CNC(=O)CCCc2ccccc2)C(=O)NC[C@H]2CC[C@H](C(=O)N[C@@H](Cc3ccc4ccccc4c3)C(=O)NCCCC[C@H](NC(=O)N[C@@H](CCC(=O)O)C(=O)O)C(=O)O)CC2)CCN(CC(=O)[O-])CC1.[68Ga+3] [^68Ga-HTK03056]
Heart uptake [% ID/g]: 0.59

COMPOUND: Cc1ccc(CCCC(=O)NCC(=O)N[C@@H](CCCCNC(=O)CN2CCN(CC(=O)[O-])CCN(CC(=O)[O-])CCN(CC(=O)[O-])CC2)C(=O)NC[C@H]2CC[C@H](C(=O)N[C@@H](Cc3ccc4ccccc4c3)C(=O)NCCCC[C@H](NC(=O)N[C@@H](CCC(=O)O)C(=O)O)C(=O)O)CC2)cc1.[68Ga+3] [^68Ga-HTK03090]
Heart uptake [% ID/g]: 3.00

COMPOUND: COc1ccc(CCCC(=O)NCC(=O)N[C@@H](CCCCNC(=O)CN2CCN(CC(=O)[O-])CCN(CC(=O)[O-])CCN(CC(=O)[O-])CC2)C(=O)NC[C@H]2CC[C@H](C(=O)N[C@@H](Cc3ccc4ccccc4c3)C(=O)NCCCC[C@H](NC(=O)N[C@@H](CCC(=O)O)C(=O)O)C(=O)O)CC2)cc1.[68Ga+3] [^68Ga-HTK03086]
Heart uptake [% ID/g]: 1.53
